Give LD50 for every item shown.
Test: in vivo
Conditions: mouse, po

* CC(=O)CCC=C(C)CCC=C(C)CCC=C(C)CCC=C(C)C(=O)N(C)C | > 5000 mg/kg

Consider the molecule CC(=O)CCC=C(C)CCC=C(C)CCC=C(C)CCC=C(C)C(=O)N1CCCC1 . State its measured LD50.
> 5000 mg/kg
